Biological target: Mitogen-activated protein kinase kinase kinase 2 (Homo sapiens) + Dual specificity mitogen-activated protein kinase kinase 5 (Homo sapiens) (UniProt Q9Y2U5+Q13163)
Sequence (Q13163 whole entry, looked up): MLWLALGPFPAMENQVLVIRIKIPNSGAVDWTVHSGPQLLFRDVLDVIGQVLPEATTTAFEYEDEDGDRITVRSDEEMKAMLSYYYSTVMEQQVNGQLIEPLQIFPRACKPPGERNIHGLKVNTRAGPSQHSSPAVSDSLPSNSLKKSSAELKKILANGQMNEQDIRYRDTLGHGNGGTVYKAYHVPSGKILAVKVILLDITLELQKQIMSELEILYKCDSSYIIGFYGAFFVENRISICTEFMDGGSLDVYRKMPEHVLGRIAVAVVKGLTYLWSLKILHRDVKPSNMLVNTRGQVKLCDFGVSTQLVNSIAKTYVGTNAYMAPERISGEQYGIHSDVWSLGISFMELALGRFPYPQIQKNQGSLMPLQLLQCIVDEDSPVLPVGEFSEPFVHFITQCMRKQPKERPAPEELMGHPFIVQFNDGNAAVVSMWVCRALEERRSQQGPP
Sequence (Q9Y2U5 whole entry, looked up): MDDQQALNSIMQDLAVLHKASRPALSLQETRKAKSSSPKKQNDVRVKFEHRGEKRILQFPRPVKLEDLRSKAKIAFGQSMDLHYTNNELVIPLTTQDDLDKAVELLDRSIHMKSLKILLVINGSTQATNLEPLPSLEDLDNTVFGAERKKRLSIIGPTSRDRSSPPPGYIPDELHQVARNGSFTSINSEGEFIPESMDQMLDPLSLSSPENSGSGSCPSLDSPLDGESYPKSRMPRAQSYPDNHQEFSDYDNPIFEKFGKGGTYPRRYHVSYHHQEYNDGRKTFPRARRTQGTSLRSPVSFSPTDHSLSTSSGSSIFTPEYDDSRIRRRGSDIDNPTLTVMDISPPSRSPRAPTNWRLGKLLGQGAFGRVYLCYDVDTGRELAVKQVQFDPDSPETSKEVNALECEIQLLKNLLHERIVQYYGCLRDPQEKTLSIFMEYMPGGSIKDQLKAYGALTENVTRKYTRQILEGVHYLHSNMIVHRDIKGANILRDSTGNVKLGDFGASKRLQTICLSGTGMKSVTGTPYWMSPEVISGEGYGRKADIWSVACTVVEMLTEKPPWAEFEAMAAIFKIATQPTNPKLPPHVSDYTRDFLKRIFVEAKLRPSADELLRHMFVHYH
Test: inhibitors of MEK5 binding to MEKK2, dose response, biochemical, bead multiplex flow cytometry, wildtype (AID 1897)
Conditions: MEK5-MEKK2 PB1 binding
Calls of active or inactive are those of the source. How the calls were made is not given here.
In this exercise, the only acceptable responses are y = active, n = inactive

{"Smiles Record": "O=C1Nc2ccc(Br)cc2/C1=N/N=C/C1=C(N2CCOCC2)C(=C\\c2ccccc2)/CC1", "Group": "y"}
{"Smiles Record": "Cc1ccc(-c2csc(NC(=O)C[n+]3cc(-c4ccc(C)cc4)n4c3CCC4)n2)cc1", "Group": "n"}
{"Smiles Record": "CCCOc1ccc2c(c1)C(=NN=C(N)N)c1cc(OCCC)ccc1-2", "Group": "y"}
{"Smiles Record": "CCN(CC)CCOC(=O)c1ccc(NC(=O)c2cn(-c3ccccc3)nc2-c2cccs2)cc1", "Group": "n"}
{"Smiles Record": "COc1ccc2nc3cc(Cl)ccc3c(Nc3cc(C(C)C)c(O)cc3C)c2c1", "Group": "y"}
{"Smiles Record": "COc1cc(/C=N/NC(=O)c2cc3ccccc3cc2O)ccc1OCCN1CCCCC1", "Group": "n"}
{"Smiles Record": "O=C1c2ccccc2-c2onc3ccc(NCc4ccco4)c1c23", "Group": "n"}

Next, consider the following molecule.
State the result this test recorded for `C#CCOCCOCCOCCNc1nc(N2CCN(C(=O)[C@H](Cc3cc4ccccc4[nH]3)n3cc([C@@H](N)CC(C)C)nn3)CC2)nc(N2CCN(C(=O)[C@H](Cc3cc4ccccc4[nH]3)n3cc([C@@H](N)CC(C)C)nn3)CC2)n1` . n

Data provenance is PubChem BioAssay AID1897.
